System: Human Oral Mucosa Explant Tissues
test-description: Effect of final gel pH on anthocyanin uptake into human oral mucosa explant tissues
Format: in vitro ADME
condition-context: explant sample 003; 10% w/w FBR gel

# molecule, result-units, Anthocyanin uptake, Gel pH 3.5
measured = [
    ("OC[C@H]1O[C@@H](Oc2cc3c(O)cc(O)cc3[o+]c2-c2ccc(O)c(O)c2)[C@H](O)[C@@H](O)[C@@H]1O [cyanidin 3-glucoside]", "pmol per mg tissue", 14.4),
    ("CC1OC(OCC2OC(Oc3cc4c(O)cc(O)cc4[o+]c3-c3ccc(O)c(O)c3)C(OC3OCC(O)C(O)C3O)C(O)C2O)C(O)C(O)C1O (stereo not shown) [cyanidin 3-xylosylrutinoside]", "pmol per mg tissue", 5.7),
    ("C[C@@H]1O[C@@H](OC[C@H]2O[C@@H](Oc3cc4c(O)cc(O)cc4[o+]c3-c3ccc(O)c(O)c3)[C@H](O)[C@@H](O)[C@@H]2O)[C@H](O)[C@H](O)[C@H]1O [cyanidin 3-rutinoside]", "pmol per mg tissue", 34.3),
    ("OC[C@H]1O[C@@H](Oc2cc3c(O)cc(O)cc3[o+]c2-c2ccc(O)c(O)c2)[C@H](O[C@@H]2OC[C@@H](O)[C@H](O)[C@H]2O)[C@@H](O)[C@@H]1O.[Cl-] [Cyanidin 3-sambubioside, cyanidin 3-sambubioside]", "pmol per mg tissue", 1.8),
]
